I'd be grateful if you could share measured log10 of Ki for these entries.
tested_system: Trypsin (Homo sapiens, UniProt P07477+P07478+P35030)
measurement_protocol: In vitro activity against human trypsin.
Assay type: protein assay
Values below are the log10 of the recorded Ki, with nM as the unit.

Measured log10 of Ki of Cc1cc(C(=O)Nc2ccc(-c3ccccc3S(N)(=O)=O)cc2F)n(-c2cccc(C(=N)N)c2)n1 : 0.66

Measured log10 of Ki of Cc1cc(C(=O)Nc2ccc(-c3ccccc3S(N)(=O)=O)cn2)n(-c2cccc(C(=N)N)c2)n1 : 1.77

Measured log10 of Ki of N=C(N)c1cccc(-n2nc(C(F)(F)F)cc2C(=O)Nc2ccc(-c3ccccc3S(N)(=O)=O)cc2)c1 : 0.59

Measured log10 of Ki of CS(=O)(=O)c1ccccc1-c1ccc(NC(=O)c2cc(C(F)(F)F)nn2-c2cccc(CN)c2)cc1 : 2.00

Measured log10 of Ki of Cc1cc(C(=O)Nc2ccc(-c3ccccc3S(C)(=O)=O)cc2F)n(-c2cccc(CN)c2)n1 : 2.11

Measured log10 of Ki of CCCCc1cc(C(=O)Nc2ccc(-c3ccccc3S(N)(=O)=O)cc2)n(-c2cccc(C(=N)N)c2)n1.O=C(O)C(F)(F)F : 1.04

Measured log10 of Ki of Cc1cc(C(=O)Nc2ccc(-c3ccccc3S(N)(=O)=O)cc2Br)n(-c2cccc(C(=N)N)c2)n1 : 1.23

====

I'd be grateful if you could share measured pKi for these entries.
tested_system: Coagulation factor X (Oryctolagus cuniculus, UniProt O19045)
Sequence (O19045 41-180 limits assumed): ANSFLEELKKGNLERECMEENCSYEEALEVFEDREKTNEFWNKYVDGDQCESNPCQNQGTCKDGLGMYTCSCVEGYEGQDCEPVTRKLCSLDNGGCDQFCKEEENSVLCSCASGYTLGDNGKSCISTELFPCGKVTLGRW
Sequence (O19045 233-490 limits assumed): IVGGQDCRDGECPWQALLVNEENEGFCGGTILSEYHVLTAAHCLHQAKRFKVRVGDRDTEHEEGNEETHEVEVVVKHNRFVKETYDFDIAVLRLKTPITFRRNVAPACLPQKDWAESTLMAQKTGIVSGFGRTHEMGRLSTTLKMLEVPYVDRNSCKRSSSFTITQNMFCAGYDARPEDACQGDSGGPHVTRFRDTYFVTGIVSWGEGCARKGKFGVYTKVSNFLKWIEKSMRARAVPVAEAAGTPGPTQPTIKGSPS
measurement_protocol: In vitro activity against rabbit FXa.
The quantity pKi is defined as the negative base-10 logarithm of the molar concentration.

Measured pKi of Cc1cc(C(=O)Nc2ccc(-c3ccccc3S(N)(=O)=O)cc2)n(-c2cccc(C(=N)N)c2)n1.O=C(O)C(F)(F)F : 10.52

Measured pKi of Cc1cc(C(=O)Nc2ccc(-c3ccccc3S(C)(=O)=O)cc2F)n(-c2cccc(CN)c2)n1 : 8.92

Measured pKi of NCc1cccc(-n2nc(C(F)(F)F)cc2C(=O)Nc2ccc(-c3ccccc3S(N)(=O)=O)cc2F)c1 : 9.00

Measured pKi of Cc1cc(C(=O)Nc2ccc(-c3ccccc3S(N)(=O)=O)cc2)n(-c2cccc(CN)c2)n1 : 8.39

Measured pKi of Cc1cc(C(=O)Nc2ccc(-c3ccccc3S(N)(=O)=O)cc2F)n(-c2cccc(CN)c2)n1 : 8.66

Measured pKi of NCc1cccc(-n2nc(C(F)(F)F)cc2C(=O)Nc2ccc(-c3ccccc3S(N)(=O)=O)cc2)c1 : 8.68

====

tested_system: Coagulation factor X (Oryctolagus cuniculus, UniProt O19045)
measurement_protocol: In vitro activity against rabbit factor Xa
reported_metric: pKi
The quantity pKi is defined as the negative base-10 logarithm of the molar concentration.

Measured pKi of CS(=O)(=O)c1ccccc1-c1ccc(NC(=O)c2cc(C(F)(F)F)nn2-c2cccc(CN)c2)c(F)c1.Cl : 9.52

====

I'd be grateful if you could share measured Ki for these entries.
tested_system: Coagulation factor X (Homo sapiens)
Sequence (P00742 41-179 limits assumed): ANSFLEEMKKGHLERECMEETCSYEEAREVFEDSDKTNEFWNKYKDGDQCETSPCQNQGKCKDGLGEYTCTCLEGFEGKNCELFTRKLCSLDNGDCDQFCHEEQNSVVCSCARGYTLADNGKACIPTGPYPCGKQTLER
Sequence (P00742 235-488 limits assumed): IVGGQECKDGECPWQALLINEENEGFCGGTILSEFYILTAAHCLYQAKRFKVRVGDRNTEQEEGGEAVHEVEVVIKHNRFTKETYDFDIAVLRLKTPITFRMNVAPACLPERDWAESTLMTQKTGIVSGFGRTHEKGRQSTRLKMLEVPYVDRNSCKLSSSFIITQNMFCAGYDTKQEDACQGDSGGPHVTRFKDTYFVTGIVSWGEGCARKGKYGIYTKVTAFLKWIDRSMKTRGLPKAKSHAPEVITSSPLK
measurement_protocol: Binding affinity against human coagulation factor X
Give the quantity in nM, number only.

Measured Ki of CCCCc1cc(C(=O)Nc2ccc(-c3ccccc3S(N)(=O)=O)cc2)n(-c2cccc(C(=N)N)c2)n1.O=C(O)C(F)(F)F : 0.06

Measured Ki of CS(=O)(=O)c1ccccc1-c1ccc(NC(=O)c2cc(C(F)(F)F)nn2-c2cccc(CN)c2)cc1 : 0.38

Measured Ki of Cc1cc(C(=O)N(C)c2ccc(-c3ccccc3S(N)(=O)=O)cc2)n(-c2cccc(C(=N)N)c2)n1.O=C(O)C(F)(F)F : 11

Measured Ki of Cc1cc(C(=O)Nc2ccc(-c3ccccc3S(C)(=O)=O)cc2F)n(-c2cccc(CN)c2)n1 : 480

Measured Ki of N=C(N)c1cccc(-n2cccc2C(=O)Nc2ccc(-c3ccccc3S(N)(=O)=O)cc2)c1 : 0.8

Measured Ki of N=C(N)c1cccc(-n2nccc2C(=O)Nc2ccc(-c3ccccc3S(N)(=O)=O)cc2)c1 : 0.16

Measured Ki of Cc1cc(C(=O)Nc2ccc(-c3ccccc3S(N)(=O)=O)cc2Br)n(-c2cccc(C(=N)N)c2)n1 : 0.01
